Where do these numbers come from? They come from patent US12427163B2.

# tested_target: T1, human VTCN1 protein (Homo sapiens, UniProt Q7Z7D3)
# T1 construct: His
# T1 sequence (Q7Z7D3 25-282): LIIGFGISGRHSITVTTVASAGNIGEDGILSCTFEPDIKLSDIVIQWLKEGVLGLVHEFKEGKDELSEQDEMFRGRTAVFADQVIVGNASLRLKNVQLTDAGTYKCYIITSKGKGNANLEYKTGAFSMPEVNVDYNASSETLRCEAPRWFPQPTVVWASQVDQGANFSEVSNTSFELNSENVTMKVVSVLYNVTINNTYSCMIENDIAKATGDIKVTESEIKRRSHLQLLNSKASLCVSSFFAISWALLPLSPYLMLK
# measurement_protocol: Affinity to recombinant VTCN1-his by OCTET Red (Protein A biosensors)
# Assay type: binding
# cond: Table 12
Overview of reported Human k(on) across a group of molecules:
I'd appreciate a reply containing only the number, no unit.

molecule	reported_measurement
4C7_63A1: fully human VTCN1 antibody; VH SEQ ID NO: 248, VL SEQ ID NO: 252 (antibody, V domains shown) VH: QVQLQESGPGLVKPSGTLSLTCAVSGGSISSSNWWSWVRQPPGKGLEAIGEIYHSGNTNYNPSLKSRVTISVDKSKNQFSLKLSSVTAADTAIYYCARDGYSSGWYWGYFDYWGQGTLVTVSS VL: EIVMTQSPATLSVSPGERATLSCRASQSVNSNLAWYQQKPGQAPWLLIYGASTRATGIPARFSGSGSGTEFTLTISSLQSEDFAVYYCQQYNHWPYTFGQGTKLEIK	1.19E+05
12B5_44B1: fully human VTCN1 antibody; VH SEQ ID NO: 264, VL SEQ ID NO: 268 (antibody, V domains shown) VH: QVQLVQSGAEVKKPGSSMKVSCKASGDTFSSYAISWVRQAPGQGLEWMAGIIPVFGTAHNAQKFQGRVTITADKSTSTAYMELSSLRSEDTAVYYCTRGGPYFDYWGQGTLVTVSS VL: EIVMTQSPATLSVSPGERAALSCRASQSVSSNLAWYQQKPGQAPRLLIYGVSTRATGIPDRFNGSGSGTEFTLTISSLQSEDFGAYYCQQYKKWPFIFGPGTKLEIK	1.61E+05
14D6_60B5: fully human VTCN1 antibody; VH SEQ ID NO: 278, VL SEQ ID NO: 281 (antibody, V domains shown) VH: QVQLVHSGAEVKRPGSSVKVSCKASGGTFSSYAISWVRQAPGQGLEWMGGIIPIFGIANYAQKFQGRVTIIADKSTRTAYMELSSLRSEDTAVYYCARGGPYFDYWGQGILVTVSS VL: EIVMTQSPATLSVSPGERATLSCRASQSVSSNLAWYQQKPGQAPRLLIYGASTRATGIPARFSGSGSGTEFTLTISSLQSEDFAVYYCQQYNKWPFTFGPGTKVDIK	1.32E+05
13H9_44D2: fully human VTCN1 antibody; VH SEQ ID NO: 272, VL SEQ ID NO: 276 (antibody, V domains shown) VH: QVQLQESGPGLVKPSETLSLTCTVSGGSISSYYWSWIRQPPGKGLEWIGYIYYSGSTNNNPSLKSRVTISVDTSKNQFSLKLISVTAADTAVYYCARVYNNYDWGFDYWGQGTLVTVSS VL: EIVMTQSPATLSVSPGERATLSCRASQSVSSNLAWYQQKPGQAPRLLIYGASTRATGIPARFSGSGSGTEFTLTIRSLQSEDFAVYYCQQYHNWPLTFGGGTKLEIK	1.33E+06

Field: next molecule
Incoming: Given the entry 16H12_60B4: fully human VTCN1 antibody; VH SEQ ID NO: 283, VL SEQ ID NO: 286 (antibody, V domains shown) VH: QVQVVQSGAEVKKPGSSVKVSCKASGDTFSNYAISWVRQAPGQGLEWMGGIIPIFGITNYAQKFQGRVTIIADKSTRTAYMELSSLRSEDTAVYYCSRGGPYFDYWGQGILVTVSS VL: EIVMTQSPATLSVSPGERATLSCRASQSVSSNLAWYQQKPGQAPRLLIYGASTRATGIPARFSGSGSGTEFTLTISSLQSEDFAVYYCQQYKKWPFTFGPGTKVDIK , report its measured Human k(on).
Outgoing: 2.62E+05
